All values here come from ChEMBL document CHEMBL3769348.

MEASURED_TARGET: Muscarinic acetylcholine receptor M4 (Homo sapiens)
TEST_SUMMARY: Allosteric modulation of human M4 mAChR expressed in FIpIn-CHO cells assessed as ERK1/2 phosphorylation after 6 mins by Alphascreen assay in the presence of ACh
Type: cell-based
Calls of active or inactive are those of the source. The rule behind the calls is not given here.

[
  {
    "SMILES_INPUT": "CCCCCCNC(=O)c1sc2nc(OC)c(Cl)c(C)c2c1N",
    "pKb": 6.7
  },
  {
    "SMILES_INPUT": "CCOc1nc2sc(C(=O)NC3CC3)c(N)c2c(C)c1Cl",
    "pKb": 6.1
  },
  {
    "SMILES_INPUT": "COc1nc2sc(C(=O)NC3CC3)c(N)c2c(C)c1Cl",
    "pKb": 6.41
  },
  {
    "SMILES_INPUT": "COc1nc2sc(C(=O)NC3CC3)c(N)c2c(C)c1I",
    "pKb": 6.66
  },
  {
    "SMILES_INPUT": "COc1nc2sc(C(=O)NC3CC3)c(NC(C)=O)c2c(C)c1Cl",
    "pKb": "inactive"
  },
  {
    "SMILES_INPUT": "CCCC(=O)Nc1c(C(=O)NC2CC2)sc2nc(OC)c(Cl)c(C)c12",
    "pKb": "inactive"
  },
  {
    "SMILES_INPUT": "CCCCCCOc1nc2sc(C(=O)NC3CC3)c(N)c2c(C)c1Cl",
    "pKb": 7.42
  },
  {
    "SMILES_INPUT": "CCNC(=O)c1sc2nc(OC)c(Cl)c(C)c2c1N",
    "pKb": 6.73
  },
  {
    "SMILES_INPUT": "CCCCOc1nc2sc(C(=O)NC3CC3)c(N)c2c(C)c1Cl",
    "pKb": 6.81
  },
  {
    "SMILES_INPUT": "COc1cc(C)c2c(N)c(C(=O)NC3CC3)sc2n1",
    "pKb": 5.55
  },
  {
    "SMILES_INPUT": "Cc1nc2sc(C(=O)NC3CC3)c(N)c2c(C)c1Cl",
    "pKb": 6.45
  },
  {
    "SMILES_INPUT": "CCCCNC(=O)c1sc2nc(OC)c(Cl)c(C)c2c1N",
    "pKb": 6.29
  },
  {
    "SMILES_INPUT": "Cc1nc(C)c2c(N)c(C(=O)NC3CC3)sc2n1",
    "pKb": 4.9
  },
  {
    "SMILES_INPUT": "COc1nc2sc(C(=O)NC3CC3)c(N)c2c(C)c1Br",
    "pKb": 6.52
  },
  {
    "SMILES_INPUT": "CCCCCC(=O)Nc1c(C(=O)NC2CC2)sc2nc(OC)c(Cl)c(C)c12",
    "pKb": "inactive"
  }
]
